The measurements presented in this section are drawn from PubChem BioAssay (NCATS).

Test: AP1 Signaling Pathway (AID 357);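 note: ME-180 reporter cells stimulated with EGF at its EC50 level; % is set by controls: 0 for no effect and ±100 for the full control effect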
Conditions: ME-180 (cervical carcinoma) AP-1-bla reporter, EGF-induced, beta-lactamase ratio, 5 h; at 7.69 µM (top of the series) unless noted
Protocol: NCGC Assay Overview: Activator protein-1 (AP-1), a transcription factor, plays an important role in tumor genesis by regulating genes involved in cell proliferation, differentiation, apoptosis, and angiogenesis. AP-1 activity is induced by a complex network of signaling pathways that involves extracellular signals, such as growth factors. […] Library compounds were measured for their ability to modulate positively or negatively the action of EC50 EGF on reporter gene activity. […]
Records with an inconclusive call do not appear.
measured.endpoint: activity change, negative = inhibition (%)
# unit: % | format: bare number

sample.smiles | activity change, negative = inhibition [%]
COc1ccccc1CNc1ncncc1-c1cccc(C#N)c1 | -6.51

Kindly consider the entry below.
Param item = O=C(Nc1ccccc1)N1CCCC2(CCN(C(=O)c3ccco3)CC2)C1 ; retrieve measured activity change, negative = inhibition.
-8.89
